molecular target: 5-HT2B receptor (Homo sapiens, UniProt P41595); construct: expressed in transfected cells; host or cells: CHO-K1; test: Serotonin receptor binding, [3H] LSD, CHO-K1 membranes
Sequence (P41595 whole entry): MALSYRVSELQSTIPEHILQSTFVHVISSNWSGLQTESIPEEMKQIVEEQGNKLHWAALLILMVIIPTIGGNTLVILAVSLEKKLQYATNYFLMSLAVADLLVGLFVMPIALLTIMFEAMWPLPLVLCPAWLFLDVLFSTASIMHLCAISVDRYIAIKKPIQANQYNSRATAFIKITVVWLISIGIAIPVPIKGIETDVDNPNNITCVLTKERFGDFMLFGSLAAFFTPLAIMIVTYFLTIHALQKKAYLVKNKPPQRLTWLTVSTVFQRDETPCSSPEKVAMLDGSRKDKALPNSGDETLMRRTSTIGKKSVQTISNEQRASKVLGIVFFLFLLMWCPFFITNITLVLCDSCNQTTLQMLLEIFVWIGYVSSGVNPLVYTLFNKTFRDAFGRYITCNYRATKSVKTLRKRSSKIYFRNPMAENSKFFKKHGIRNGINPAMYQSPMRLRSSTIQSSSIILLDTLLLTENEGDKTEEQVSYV
measured endpoint: Ki (nM)
Just the number please, in nM, no unit attached.

Ask: Fill in the blank: the reported Ki of `COc1ccc2[nH]cc(CCNC(=O)c3cc(=O)c(O)co3)c2c1` is ____.
Result: 1430

* * *

Target: MT-2 receptor (Homo sapiens, UniProt P49286)
Construct: expressed in transfected cells; host or cells: CHP-K1 (Chinese hamster ovary) cells (so in the source)
Sequence (P49286 1-362): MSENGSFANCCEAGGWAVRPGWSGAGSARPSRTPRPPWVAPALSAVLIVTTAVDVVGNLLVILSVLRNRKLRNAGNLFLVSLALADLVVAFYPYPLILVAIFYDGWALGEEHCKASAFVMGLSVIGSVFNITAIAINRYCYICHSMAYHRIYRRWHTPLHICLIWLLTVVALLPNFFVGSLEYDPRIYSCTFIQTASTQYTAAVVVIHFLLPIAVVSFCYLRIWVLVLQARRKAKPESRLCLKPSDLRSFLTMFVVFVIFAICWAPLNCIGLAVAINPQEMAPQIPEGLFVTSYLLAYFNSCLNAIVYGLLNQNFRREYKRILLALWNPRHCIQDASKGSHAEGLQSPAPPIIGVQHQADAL
Test: 125I-melatonin binding in membranes of CHP-K1 cells, MT-2
From the text: […]
measured endpoint: IC50

Ask: Give IC50 (MT-2 receptor (Homo sapiens, UniProt P49286)) of the following molecule: `COc1ccc2[nH]cc(CCNC(=O)c3cc(=O)c(O)co3)c2c1`
Result: 13 nM
